Data provenance: patent US9624217B2

Can you tell me Ki for the items I'm about to list?
Target: recombinant RORγ Ligand Binding Domain (LBD) (Homo sapiens (Human))
Test: Radio-Ligand RORγ Binding Assay (Assay 1)
Settings: SPA competition with 25-hydroxy [26,27-3H]-cholesterol, cell-free; read-out: RORγ Binding Ki Range

Fill in Ki for `CCS(=O)(=O)c1ccc(CNC(=O)c2cnc3c(c2)CN(Cc2ccc(Cl)cc2)[C@H]3C(C)C)cc1` tested with recombinant RORγ Ligand Binding Domain (LBD) (Homo sapiens (Human)).
< 0.1 µM

Fill in Ki for `CC(C)[C@H]1c2ncc(C(=O)NCc3ccc(S(C)(=O)=O)cc3)cc2CN1Cc1ccc(C(F)(F)F)cc1` tested with recombinant RORγ Ligand Binding Domain (LBD) (Homo sapiens (Human)).
< 0.1 µM

Fill in Ki for `CC(C)[C@H]1c2ncc(C(=O)N[C@H](CO)c3ccc(C#N)cc3)cc2CN1Cc1ccc(C(F)(F)F)cc1` tested with recombinant RORγ Ligand Binding Domain (LBD) (Homo sapiens (Human)).
0.1 to 1 µM

Fill in Ki for `CCS(=O)(=O)c1ccc(CNC(=O)c2cnc3c(c2)CN(Cc2ccc(C#N)cc2)[C@H]3C(C)C)nc1` tested with recombinant RORγ Ligand Binding Domain (LBD) (Homo sapiens (Human)).
< 0.1 µM

###

Molecular target: full-length RORγt (Homo sapiens (Human), UniProt P51449)
Sequence (P51449 other isoform, or with tags, fused parts or gaps): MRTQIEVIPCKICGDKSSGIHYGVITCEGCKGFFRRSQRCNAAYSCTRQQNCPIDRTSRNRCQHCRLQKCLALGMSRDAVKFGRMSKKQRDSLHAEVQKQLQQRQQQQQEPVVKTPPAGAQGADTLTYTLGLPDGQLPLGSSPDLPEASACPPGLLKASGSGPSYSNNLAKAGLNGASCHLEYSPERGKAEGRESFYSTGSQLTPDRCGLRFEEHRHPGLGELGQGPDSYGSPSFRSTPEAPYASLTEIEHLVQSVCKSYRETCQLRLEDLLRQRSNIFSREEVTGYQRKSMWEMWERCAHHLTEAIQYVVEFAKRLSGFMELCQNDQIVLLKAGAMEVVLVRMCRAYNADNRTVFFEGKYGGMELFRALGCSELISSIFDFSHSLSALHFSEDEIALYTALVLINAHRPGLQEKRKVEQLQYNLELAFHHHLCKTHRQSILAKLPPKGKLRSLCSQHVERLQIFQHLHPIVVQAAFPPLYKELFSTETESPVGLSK
Experiment: RORγt 5×RORE Assay in Jurkat Cells (Assay 2)
Conditions: secreted Nanoluc luciferase 5×RORE reporter, 16-18 hrs, read-out: RORγt5X IC50 Range
Measured attribute: IC50

Hello, please tell me recorded IC50 for this one: `CC(C)[C@H]1c2ncc(C(=O)N[C@@H](CO)c3ccc(C#N)cc3)cc2CN1Cc1ccc(C(F)(F)F)cc1`
100 to 1000 nM

Hello, please tell me recorded IC50 for this one: CCS(=O)(=O)c1ccc(CNC(=O)c2cnc3c(c2)C(=O)N(Cc2ccc(Cl)cc2)C3(O)C(C)C)cc1 (centres unmarked)
> 1000 nM

Hello, please tell me recorded IC50 for this one: `CCS(=O)(=O)c1ccc(CNC(=O)c2cnc3c(c2)CN(Cc2ccc4c(c2)OC(F)(F)O4)[C@H]3C(C)C)nc1`
< 100 nM

Hello, please tell me recorded IC50 for this one: `CCS(=O)(=O)c1ccc(CNC(=O)c2cnc3c(c2)CN(CC2CCC(F)(F)CC2)[C@H]3C(C)C)cc1`
> 1000 nM

Hello, please tell me recorded IC50 for this one: `CCS(=O)(=O)c1ccc(CNC(=O)c2cnc3c(c2)CN(Cc2ccc(C(F)(F)F)cc2)[C@H]3C(C)C)nc1`
< 100 nM

Hello, please tell me recorded IC50 for this one: `CC(C)[C@H]1c2ncc(C(=O)NCc3ccc(C#N)cc3)cc2CN1Cc1ccc(C(F)(F)F)cc1`
100 to 1000 nM

Hello, please tell me recorded IC50 for this one: `CC(C)[C@H]1c2ncc(C(=O)NCc3ccc(C#N)cn3)cc2CN1Cc1ccc(C(F)(F)F)cc1`
> 1000 nM

Hello, please tell me recorded IC50 for this one: `CCS(=O)(=O)c1ccc(CNC(=O)c2cnc3c(c2)CN(Cc2ccc(OC(F)F)cc2)[C@H]3C(C)C)cc1`
< 100 nM

Hello, please tell me recorded IC50 for this one: `CC(C)[C@H]1c2ncc(C(=O)NCc3ccc(S(C)(=O)=O)cc3)cc2CN1Cc1ccc(Cl)cc1`
< 100 nM

Hello, please tell me recorded IC50 for this one: `CCS(=O)(=O)c1ccc(CNC(=O)c2cnc3c(c2)CN(Cc2ccc(F)cc2)[C@H]3C(C)C)cc1`
100 to 1000 nM

Hello, please tell me recorded IC50 for this one: `CCS(=O)(=O)c1ccc(CNC(=O)c2cnc3c(c2)CN(C(=O)OC(C)(C)C)[C@H]3C(C)C)cc1`
> 1000 nM

Hello, please tell me recorded IC50 for this one: `CCS(=O)(=O)c1ccc(CNC(=O)c2cnc3c(c2)CN(Cc2ccc(Cl)cc2)[C@H]3C(C)C)nc1`
< 100 nM

Hello, please tell me recorded IC50 for this one: `CCS(=O)(=O)c1ccc(CNC(=O)c2cnc3c(c2)CN(Cc2ccc(C#N)cc2)[C@H]3C(C)C)cc1`
< 100 nM

Hello, please tell me recorded IC50 for this one: `CCS(=O)(=O)c1ccc(CNC(=O)c2cnc3c(c2)CN(C(=O)OCc2ccc(Cl)cc2)[C@H]3C(C)C)cc1`
> 1000 nM

Hello, please tell me recorded IC50 for this one: `CC(C)[C@H]1c2ncc(C(=O)NC[C@H]3CC[C@H](CC(=O)O)CC3)cc2CN1Cc1ccc(C(F)(F)F)cc1`
100 to 1000 nM

Hello, please tell me recorded IC50 for this one: `CCS(=O)(=O)c1ccc(CNC(=O)c2cnc3c(c2)[C@@H](C)N(Cc2ccc(C(F)(F)F)cc2)[C@H]3C(C)C)cc1`
< 100 nM

Hello, please tell me recorded IC50 for this one: `CCS(=O)(=O)c1ccc(CC(=O)Nc2cnc3c(c2)CN(Cc2ccc(C#N)cc2)[C@H]3C(C)C)cc1`
< 100 nM

###

Target: recombinant RORγ Ligand Binding Domain (LBD) (Homo sapiens (Human), UniProt P51449)
Sequence (P51449 269-508): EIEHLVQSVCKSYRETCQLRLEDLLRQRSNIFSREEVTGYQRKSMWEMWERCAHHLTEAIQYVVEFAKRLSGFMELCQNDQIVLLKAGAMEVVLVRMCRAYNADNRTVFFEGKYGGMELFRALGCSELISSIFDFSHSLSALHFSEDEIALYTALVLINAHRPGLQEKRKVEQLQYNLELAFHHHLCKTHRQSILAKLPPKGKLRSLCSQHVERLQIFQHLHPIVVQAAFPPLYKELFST
Experiment: Radio-Ligand RORγ Binding Assay (Assay 1)
Conditions: SPA competition with 25-hydroxy [26,27-3H]-cholesterol, cell-free; read-out: RORγ Binding Ki Range
Can you tell me Ki for the items I'm about to list?

Hello, please tell me recorded Ki for this one: CC(C)[C@H]1c2ncc(C(=O)NCC(O)c3ccc(C(F)(F)F)cc3)cc2CN1Cc1ccc(C(F)(F)F)cc1 (stereo partly shown)
> 1 µM

Hello, please tell me recorded Ki for this one: `CCS(=O)(=O)N1CCC(CNC(=O)c2cnc3c(c2)CN(Cc2ccc(C(F)(F)F)cc2)[C@H]3C(C)C)CC1`
< 0.1 µM

Hello, please tell me recorded Ki for this one: `CC(C)[C@H]1c2ncc(C(=O)NCc3ccc(C#N)cc3)cc2CN1Cc1ccc(C(F)(F)F)cc1`
< 0.1 µM

Hello, please tell me recorded Ki for this one: `CCS(=O)(=O)c1ccc(CNC(=O)c2cnc3c(c2)CN(Cc2ccc(C(F)(F)F)cc2)[C@H]3C(C)C)nc1`
< 0.1 µM

Hello, please tell me recorded Ki for this one: `CC(C)[C@H]1c2ncc(C(=O)NCC3CCN(S(C)(=O)=O)CC3)cc2CN1Cc1ccc(C(F)(F)F)cc1`
< 0.1 µM

Hello, please tell me recorded Ki for this one: CC(C)[C@H]1c2ncc(C(=O)NCC(c3cccnc3)N3CCOCC3)cc2CN1Cc1ccc(C(F)(F)F)cc1 (stereo partly shown)
> 1 µM

Hello, please tell me recorded Ki for this one: CC(C)[C@H]1c2ncc(C(=O)NCC3CCN(S(C)(=O)=O)C3)cc2CN1Cc1ccc(C(F)(F)F)cc1 (stereo partly shown)
> 1 µM

Hello, please tell me recorded Ki for this one: `CCS(=O)(=O)c1ccc(CNC(=O)c2cnc3c(c2)CN(C[C@H]2CC[C@H](OC)CC2)[C@H]3C(C)C)cc1`
< 0.1 µM

Hello, please tell me recorded Ki for this one: `CC(C)[C@H]1c2ncc(C(=O)NCC3(c4ccc(Cl)cc4)CC3)cc2CN1Cc1ccc(C(F)(F)F)cc1`
> 1 µM

Hello, please tell me recorded Ki for this one: `COC(=O)N1CC(CNC(=O)c2cnc3c(c2)CN(Cc2ccc(C(F)(F)F)cc2)[C@H]3C(C)C)C1`
> 1 µM

Hello, please tell me recorded Ki for this one: `CCS(=O)(=O)c1ccc(CNC(=O)c2cnc3c(c2)[C@@H](C)N(Cc2ccc(C(F)(F)F)cc2)[C@H]3C(C)C)cc1`
< 0.1 µM

Hello, please tell me recorded Ki for this one: `CC(C)[C@H]1c2ncc(C(=O)NC[C@H]3CC[C@H](C(=O)O)CC3)cc2CN1Cc1ccc(C(F)(F)F)cc1`
> 1 µM

Hello, please tell me recorded Ki for this one: `CCS(=O)(=O)c1ccc(CNC(=O)c2cnc3c(c2)CN(Cc2ccc(Cl)cc2)[C@H]3C(C)C)nc1`
< 0.1 µM

Hello, please tell me recorded Ki for this one: CC(O)C(=O)N1CCC(CNC(=O)c2cnc3c(c2)CN(Cc2ccc(C(F)(F)F)cc2)[C@H]3C(C)C)CC1 (stereo partly shown)
> 1 µM

Hello, please tell me recorded Ki for this one: `CC(C)[C@H]1c2ncc(C(=O)N[C@H](C)c3ccc(Br)cc3)cc2CN1Cc1ccc(C(F)(F)F)cc1`
> 1 µM

Hello, please tell me recorded Ki for this one: `CC(C)[C@H]1c2ncc(C(=O)NCc3ccc(S(C)(=O)=O)cc3)cc2CN1Cc1ccc(F)cc1`
< 0.1 µM

Hello, please tell me recorded Ki for this one: `CCS(=O)(=O)c1ccc(CNC(=O)c2cnc3c(c2)CN(Cc2ccc(F)cc2)[C@H]3C(C)C)cc1`
< 0.1 µM

Hello, please tell me recorded Ki for this one: CC(C)[C@H]1c2ncc(C(=O)N[C@H]3c4ccccc4C[C@H]3O)cc2CN1Cc1ccc(C(F)(F)F)cc1 [Compound 132]
0.1 to 1 µM

Hello, please tell me recorded Ki for this one: `CCS(=O)(=O)c1cnc(CNC(=O)c2cnc3c(c2)CN(Cc2ccc(C(F)(F)F)cc2)[C@H]3C(C)C)c(C)c1`
< 0.1 µM

Hello, please tell me recorded Ki for this one: COC(=O)C(Cc1ccc(F)cc1)NC(=O)c1cnc2c(c1)CN(Cc1ccc(C(F)(F)F)cc1)[C@H]2C(C)C (stereo partly shown)
> 1 µM

Hello, please tell me recorded Ki for this one: `CCS(=O)(=O)c1ccc(CNC(=O)c2cnc3c(c2)CN(C[C@H]2CC[C@H](C(=O)OC)CC2)[C@H]3C(C)C)cc1`
< 0.1 µM

Hello, please tell me recorded Ki for this one: `CC(C)[C@H]1c2ncc(C(=O)NCc3cccnn3)cc2CN1Cc1ccc(C(F)(F)F)cc1`
> 1 µM

Hello, please tell me recorded Ki for this one: `CC(C)[C@H]1c2ncc(C(=O)NCCc3ccnc(O)c3)cc2CN1Cc1ccc(C(F)(F)F)cc1`
> 1 µM

Hello, please tell me recorded Ki for this one: `CC(C)[C@H]1c2ncc(C(=O)NCC(F)F)cc2CN1Cc1ccc(C(F)(F)F)cc1`
> 1 µM

Hello, please tell me recorded Ki for this one: `CC(C)[C@H]1c2ncc(C(=O)NCc3ccccc3CN3CCN(C)CC3)cc2CN1Cc1ccc(C(F)(F)F)cc1`
> 1 µM

Hello, please tell me recorded Ki for this one: `CC(C)[C@H]1c2ncc(C(=O)NCC3(O)CCC4(CC3)OCCO4)cc2CN1Cc1ccc(C(F)(F)F)cc1`
> 1 µM

Hello, please tell me recorded Ki for this one: `CC(C)[C@H]1c2ncc(C(=O)NCC3CCN(C)CC3)cc2CN1Cc1ccc(C(F)(F)F)cc1`
> 1 µM

Hello, please tell me recorded Ki for this one: `CCS(=O)(=O)c1ccc(CNC(=O)c2cnc3c(c2)CN(Cc2ccc4c(c2)OC(F)(F)O4)[C@H]3C(C)C)nc1`
< 0.1 µM
